Test system: ATP;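 note: ATP exposure 15 min at 22 °C before imaging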
Experiment: switch fluorescence ratio, 500 uM ATP over buffer (Cy3 cluster intensity, sum of 5 cycles each) (fold (ratio)); higher = stronger signal-on switching upon ATP binding; sequences stand for … in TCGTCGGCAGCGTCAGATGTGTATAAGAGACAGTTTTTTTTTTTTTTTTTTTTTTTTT…TC
Conditions: aptamer strand: ATP DNA aptamer (quencher-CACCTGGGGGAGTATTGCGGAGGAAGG + anchor), 100 nM annealed; ATP concentration: 500 uM
property: switch fluorescence ratio
Response field accepts a number only; no unit should be typed.

INSERT INTO measurements (sequence_data, property, reported_result) VALUES
  ('TTGACGCAGT', 'switch fluorescence ratio', 1.23),
  ('ATATGTTTGG', 'switch fluorescence ratio', 1.01),
  ('ACACGCGCCT', 'switch fluorescence ratio', 1.08);

Per the reported ATP data, `CGTATCGGGG` has switch fluorescence ratio of 0.993

Per the reported ATP data, `CCTGTAATTG` has switch fluorescence ratio of 1.03

Per the reported ATP data, `GGGGCGGGAT` has switch fluorescence ratio of 1.01

Per the reported ATP data, `GGGTTGTGTA` has switch fluorescence ratio of 1

Per the reported ATP data, `ATGGTATAAC` has switch fluorescence ratio of 1.01

Per the reported ATP data, `GAGAGAGTGG` has switch fluorescence ratio of 0.976

Per the reported ATP data, `TATGAAGACG` has switch fluorescence ratio of 1.12

Per the reported ATP data, `AGAGCGGGCT` has switch fluorescence ratio of 1.04

Just for reference, the supplement of paper PMC10126150 is where these values come from.
